- TARGET ENTITY: KRas G12D (Homo sapiens, UniProt P01116, G12D);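 note: TR-FRET displacement binding assay on KRas, read after a one-hour incubation at room temperature, IC50 fitted from percent-of-control values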
- Sequence (P01116 1-169 isoform P01116-2 G12D): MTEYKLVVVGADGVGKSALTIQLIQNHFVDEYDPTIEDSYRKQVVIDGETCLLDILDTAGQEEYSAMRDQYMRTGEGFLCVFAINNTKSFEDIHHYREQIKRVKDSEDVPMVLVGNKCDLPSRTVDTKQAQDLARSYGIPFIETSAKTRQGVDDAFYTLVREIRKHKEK
- ASSAY PROCEDURE: biochemical
IC50 listing for selected compounds.
METRIC: IC50 (nM)

1. O=C1NCC2(CCCN(c3nc(OC[C@@]45CCCN4C[C@H](F)C5)nc4c(F)c(-c5cc(O)cc6ccc(F)c(F)c56)ncc34)C2)N1 (stereo partly shown) [Example 445]: 4
2. CCc1c(F)ccc2cc(O)cc(-c3ncc4c(N5CCC[C@@](C)(O)C5)nc(OC[C@]56CCCN5[C@@H](COC(=O)N(C)C)CC6)nc4c3F)c12 [Example 362]: 3
3. CCc1c(F)ccc2cccc(-c3ncc4c(N5CCCC6(CNC(=O)C6)C5)nc(OC[C@@]56CCCN5C[C@H](F)C6)nc4c3F)c12 (stereo partly shown) [Example 37]: 41
4. Fc1c(-c2cccc3cccc(F)c23)ncc2c(Nc3ccc4[nH]ncc4c3)nc(OCC34CCCN3CCC4)nc12 [Example 100]: 11800
5. Cc1n[nH]c(C2CCCN(c3nc(OCC45CCCN4CCC5)nc4c(F)c(-c5cc(O)cc6ccc(F)c(F)c56)ncc34)C2)n1 (stereo not shown) [Example 138]: 12
6. Fc1c(-c2cccc3cccc(Cl)c23)ncc2c(NCCCOC(F)F)nc(OCC34CCCN3CCC4)nc12 [Example 474]: 8600
7. NS(=O)(=O)OC1CCCN(c2nc(OCC34CCCN3CCC4)nc3c(F)c(-c4cccc5cccc(F)c45)ncc23)C1 (stereo not shown) [Example 248]: 6810

====

- TARGET ENTITY: KRas G12A (Homo sapiens, UniProt P01116, G12A);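 note: binding to KRas measured by TR-FRET displacement after one hour at room temperature, IC50 from a four-parameter fit of percent-of-control values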
- Sequence (P01116 1-169 isoform P01116-2 G12A): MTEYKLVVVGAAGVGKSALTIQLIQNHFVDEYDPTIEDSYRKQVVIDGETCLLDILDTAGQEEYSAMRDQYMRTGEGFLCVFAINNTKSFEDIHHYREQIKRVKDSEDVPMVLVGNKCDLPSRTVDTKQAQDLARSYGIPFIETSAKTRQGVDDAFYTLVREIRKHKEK
- ASSAY PROCEDURE: biochemical
IC50 listing for selected molecules.
METRIC: IC50 (nM)

1) CC1CC(O)CCN(c2nc(OCC34CCCN3CCC4)nc3c(F)c(-c4cccc5cccc(F)c45)ncc23)C1 (stereo not drawn): 2740
2) C#Cc1c(F)ccc2cccc(-c3ncc4c(N5CCC[C@@](C)(O)C5)nc(OC[C@@]56CCCN5C[C@H](F)C6)nc4c3F)c12: 36
3) Fc1c(-c2cccc3cccc(F)c23)ncc2c(NCCc3c[nH]c4ncccc34)nc(OCC34CCCN3CCC4)nc12: 2830
4) C[C@@]1(O)CCCN(c2nc(OC[C@@]34CCCN3C[C@H](F)C4)nc3c(F)c(-c4c5ccccc5cc5[nH]ncc45)ncc23)C1: 42
5) CCc1cccc2cccc(-c3ncc4c(N5CCCC6(CC(=O)N6)C5)nc(OCC56CCCN5CCC6)nc4c3F)c12 (stereo not drawn): 95
6) C[C@H]1C[C@H]1c1c(Cl)cc2[nH]ncc2c1-c1ncc2c(N3CCC[C@@](C)(O)C3)nc(OC[C@@]34CCCN3C[C@H](F)C4)nc2c1F (racemic): 7
7) O=C1CC2(CCCN(c3nc(OCC45CCCN4CCC5)nc4c(F)c(-c5cccc6cccc(C(F)(F)F)c56)ncc34)C2)N1 (stereo not drawn): 968
8) O=S1(=O)CC(CNc2nc(OCC34CCCN3CCC4)nc3c(F)c(-c4cccc5cccc(F)c45)ncc23)C1: 2680
9) OC1CC2CC(C1)N(c1nc(OCC34CCCN3CCC4)nc3c(F)c(-c4cccc5cccc(Cl)c45)ncc13)C2 (stereo not drawn): 722
10) O=c1[nH][nH]cc1CNc1nc(OCC23CCCN2CCC3)nc2c(F)c(-c3cccc4cccc(F)c34)ncc12: 11300
11) Fc1c(-c2cccc3cccc(F)c23)ncc2c(Nc3ccc4cn[nH]c4c3)nc(OCC34CCCN3CCC4)nc12: 14800
12) Fc1c(-c2cccc3cccc(F)c23)ncc2c(NCCCn3ccnn3)nc(OCC34CCCN3CCC4)nc12: 8140
13) C#Cc1c(F)ccc2cccc(-c3ncc4c(N5CCC[C@@](C)(O)C5)nc(OCC56CCCN5CCC6)nc4c3F)c12: 58
14) O[C@@H]1C[C@H](O)CN(c2nc(OCC34CCCN3CCC4)nc3c(F)c(-c4cccc5cccc(F)c45)ncc23)C1: 1250
15) O=C1CC2(CCCN(c3nc(OCC45CCCN4CCC5)nc4c(F)c(-c5cccc6cccc(F)c56)ncc34)C2)C(=O)N1 (stereo not drawn): 3020
16) C#Cc1cccc2cccc(-c3ncc4c(N5C[C@@H]6C(=O)NC(=O)[C@@H]6C5)nc(OCC56CCCN5CCC6)nc4c3F)c12: 97
17) Fc1c(-c2cccc3cccc(Cl)c23)ncc2c(NCCCOC(F)F)nc(OCC34CCCN3CCC4)nc12: 2950
18) OC12CC(Nc3nc(OCC45CCCN4CCC5)nc4c(F)c(-c5cccc6cccc(F)c56)ncc34)(C1)C2: 5140
19) CNS(=O)(=O)C1CCCN(c2nc(OCC34CCCN3CCC4)nc3c(F)c(-c4cccc5cccc(F)c45)ncc23)C1 (stereo not drawn): 5340
20) CCc1cccc2cccc(-c3ncc4c(NCc5cn[nH]c5)nc(OCC56CCCN5CCC6)nc4c3F)c12: 648
21) CC1(O)CCCN(c2nc(OCC3(CN4CCCC4)CC3)nc3c(F)c(-c4cccc5cccc(F)c45)ncc23)C1 (stereo not drawn): 5490
22) Cc1cc2[nH]ncc2c(-c2ncc3c(N4CCCC(C)(O)C4)nc(OCC45CCCN4CCC5)nc3c2F)c1C1CC1 (stereo not drawn): 71
23) Cc1cc(-c2ncc3c(N4CCCC(C)(O)C4)nc(OCC45CCCN4CCC5)nc3c2F)c2cn[nH]c2c1 (stereo not drawn): 19600
24) Cc1cc2[nH]ncc2c(-c2ncc3c(N4CCCC(C)(O)C4)nc(OC[C@@]45CCCN4C[C@H](F)C5)nc3c2F)c1C (stereo partly drawn): 332
25) OCC1CCCCN(c2nc(OCC34CCCN3CCC4)nc3c(F)c(-c4cccc5cccc(F)c45)ncc23)C1 (stereo not drawn): 10500
26) Fc1c(-c2cccc3cccc(F)c23)ncc2c(NCc3ccc4nonc4c3)nc(OCC34CCCN3CCC4)nc12: 5520

====

pIC50 listing for selected molecules.
- TARGET ENTITY: KRas G12R (Homo sapiens, UniProt P01116, G12R)
- Sequence (P01116 1-169 isoform P01116-2 G12R): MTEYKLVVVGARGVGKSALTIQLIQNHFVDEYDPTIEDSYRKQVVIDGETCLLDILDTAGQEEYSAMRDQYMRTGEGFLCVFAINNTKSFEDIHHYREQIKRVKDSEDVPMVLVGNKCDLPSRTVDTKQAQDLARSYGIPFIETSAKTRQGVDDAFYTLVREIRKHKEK
- ASSAY PROCEDURE: biochemical
pIC50: −log10 of the molar value.
METRIC: pIC50

1) O=C1CC2(CCCN(c3nc(OCC45CCCN4CCC5)nc4c(F)c(-c5cccc6cccc(Cl)c56)ncc34)C2)CN1 (centres unmarked) [Example 2]: 5.66
2) CCc1c(F)ccc2cc(O)cc(-c3ncc4c(N5CCCCC(O)C5)nc(OC[C@@]56CCCN5C[C@H](F)C6)nc4c3F)c12 (some centres unmarked) [Example 347]: 8.52
3) CCc1c(F)ccc2cc(O)cc(-c3ncc4c(Nc5ccc6cn[nH]c6c5)nc(OC[C@@]56CCCN5C[C@H](F)C6)nc4c3F)c12 [Example 171]: 8.05
4) OC[C@@H]1CCCN(c2nc(OCC34CCCN3CCC4)nc3c(F)c(-c4cccc5cccc(F)c45)ncc23)C1 [Example 268]: 5.05
5) CCc1c(F)ccc2cc(O)cc(-c3ncc4c(N5CCCC6(CCS(=O)(=O)C6)C5)nc(OC[C@@]56CCCN5C[C@H](F)C6)nc4c3F)c12 (some centres unmarked) [Example 507]: 8.40
6) O=C1NCC12CCCN(c1nc(OCC34CCCN3CCC4)nc3c(F)c(-c4cccc5cccc(F)c45)ncc13)C2 (centres unmarked) [Example 98]: 5.19
7) O=S1(=O)CC(CNc2nc(OCC34CCCN3CCC4)nc3c(F)c(-c4cccc5cccc(CO)c45)ncc23)C1 [Example 443]: 5.20
8) OCc1n[nH]c(CNc2nc(OCC34CCCN3CCC4)nc3c(F)c(-c4cccc5cccc(Cl)c45)ncc23)n1 [Example 105]: 5.23
9) CCc1cccc2cccc(-c3ncc4c(N5CCCC6(C5)NC(=O)NC6=O)nc(OCC56CCCN5CCC6)nc4c3F)c12 (centres unmarked) [Example 293]: 8.30
10) CCc1c(F)ccc2cc(O)cc(-c3ncc4c(N5CCC[C@@](C)(O)C5)nc(OC[C@@]56CCCN5[C@@H](COC(=O)N(C)C)CC6)nc4c3F)c12 [Example 512]: 8.10
11) CN(C)C(=O)c1cc2n(n1)CCCN(c1nc(OCC34CCCN3CCC4)nc3c(F)c(-c4cccc5cccc(F)c45)ncc13)C2 [Example 260]: 6.34
12) Fc1c(-c2cccc3cccc(F)c23)ncc2c(N3CCCC4(CCC4)C3)nc(OCC34CCCN3CCC4)nc12 [Example 232]: 5.00
13) CCc1c(F)ccc2cc(O)cc(-c3ncc4c(NCc5c[nH]cn5)nc(OC[C@@]56CCCN5C[C@H](F)C6)nc4c3F)c12 [Example 164]: 8.52
14) Fc1c(-c2cccc3cccc(F)c23)ncc2c(N3CC(c4ccncc4)C3)nc(OCC34CCCN3CCC4)nc12 [Example 213]: 5.37
15) N#CCc1cccc2cccc(-c3ncc4c(N5CCCC6(CC(=O)N6)C5)nc(OCC56CCCN5CCC6)nc4c3F)c12 (centres unmarked) [Example 434]: 5.35
16) CC1(O)CCCN(c2nc(OCC34CCCN3CCC4)nc3c(F)c(-c4cccc5scnc45)ncc23)C1 (centres unmarked) [Example 68]: 4.56
17) O=C1CC2(CCCN(c3nc(OCC45CCCN4CCC5)nc4c(F)c(-c5cccc6cccc(CF)c56)ncc34)C2)N1 (centres unmarked) [Example 468]: 5.54
18) CCc1c(F)ccc2cc(O)cc(-c3ncc4c(N5CCN6C(=O)NCC6C5)nc(OC[C@@]56CCCN5C[C@H](F)C6)nc4c3F)c12 (some centres unmarked) [Example 380]: 7.15
19) CCc1c(F)ccc2cc(O)cc(-c3ncc4c(N5CCCC(C#N)CC5)nc(OC[C@@]56CCCN5C[C@H](F)C6)nc4c3F)c12 (some centres unmarked) [Example 173]: 8.22
20) CCc1cccc2cccc(-c3ncc4c(N5CCCC6(CNC(=O)N6)C5)nc(OCC56CCCN5CCC6)nc4c3F)c12 (centres unmarked) [Example 294]: 7.82
